Where do the numbers come from? From patent US9096593B2.

For each record, write down the corresponding IC50.
# experimentalTarget: CYP1A2 (Homo sapiens (Human))
# assayName: CYP enzyme inhibition, fluorescent substrate
# measurementContext: read-out: Cyp IC50 (μM) 1A2

- Cc1cnc2[nH]cc(Cc3ccc(NCc4ccc(Cl)nc4)nc3F)c2c1: > 10 µM

Please find the next compound below.
[in] Item: `Fc1ccc(CNc2ccc(Cc3c[nH]c4ncc(Cl)cc34)cn2)cn1` Test system: CYP1A2 (Homo sapiens (Human)) Read-out: IC50 Value: ?
[out] > 10 µM

* * *

For each record, write down the corresponding pIC50.
# experimentalTarget: CYP1A2 (Homo sapiens (Human), UniProt P05177)
# Sequence (P05177 whole entry): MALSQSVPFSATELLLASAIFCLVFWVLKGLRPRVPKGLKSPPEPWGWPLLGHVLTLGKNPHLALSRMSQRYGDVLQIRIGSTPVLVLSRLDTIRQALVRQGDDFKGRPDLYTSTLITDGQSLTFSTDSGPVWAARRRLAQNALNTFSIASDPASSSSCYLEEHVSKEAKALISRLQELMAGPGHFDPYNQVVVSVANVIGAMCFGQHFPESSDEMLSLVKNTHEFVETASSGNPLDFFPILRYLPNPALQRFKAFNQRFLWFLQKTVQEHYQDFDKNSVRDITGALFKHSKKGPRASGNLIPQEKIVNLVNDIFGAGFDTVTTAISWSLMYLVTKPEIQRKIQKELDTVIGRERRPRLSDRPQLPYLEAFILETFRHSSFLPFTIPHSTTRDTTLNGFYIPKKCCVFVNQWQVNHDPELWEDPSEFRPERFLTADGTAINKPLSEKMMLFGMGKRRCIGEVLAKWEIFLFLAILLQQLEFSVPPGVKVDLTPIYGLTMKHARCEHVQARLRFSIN
# assayName: CYP enzyme inhibition, fluorescent substrate
pIC50: −log10 of the molar value.

# annotated cases, reported pIC50 shown
- Clc1cnc2[nH]cc(Cc3ccc(NCc4ccc(Cl)nc4)nc3)c2c1: < 5.00
- Cc1cc(CNc2ccc(Cc3c[nH]c4ncc(Cl)cc34)c(F)n2)ccn1: 5.00 to 5.30

Please find the next molecule below.
[in] Which pIC50 value is on record for `COc1cnc2[nH]cc(Cc3ccc(NCc4ccc(Cl)cc4)nc3F)c2c1` ?
[out] 5.00 to 5.30
